Entry source: patent US9102712B2

Test system: B. Subtilis
Type: cell-based
Conditions: 18 h
Square brackets hold non-standard residues; d marks the D form. Side chains are listed from the residue outwards. Peptide text beside a SMILES is read from it. Trp(2,5,7-tBu3) = CC(C)(C)c1cc(C(C)(C)C)c2[nH]c(C(C)(C)C)c(C[C@H](N)C(=O)O)c2c1; βAla = NCCC(=O)O

{"compound": "CC(C)(C)c1cc(C(C)(C)C)c2[nH]c(C(C)(C)C)c(C[C@H](N)C(=O)N[C@@H](CCCNC(=N)N)C(=O)NCCCC[C@H](NC(=O)[C@H](CCCCNC(=O)[C@H](CCCNC(=N)N)NC(=O)[C@@H](N)Cc3c[nH]c4ccccc34)NC(=O)[C@H](CCCNC(=N)N)NC(=O)[C@@H](N)Cc3c[nH]c4ccccc34)C(=O)NCCC(N)=O)c2c1 [Dendrimer 3D-13] (H-WRK([Arg-Trp])K([Arg-Trp(2,5,7-tBu3)])[βAla]-NH2)", "assayed.system": "B. Subtilis", "unit.string": "µg/mL", "IC50 B. Subtilis": 1.9}
{"compound": "N=C(N)NCCC[C@H](NC(=O)[C@H](Cc1c[nH]c2ccccc12)NC(=O)[C@@H](N)CCCNC(=N)N)C(=O)NCCCC[C@H](NC(=O)[C@H](CCCNC(=N)N)NC(=O)[C@H](Cc1c[nH]c2ccccc12)NC(=O)[C@@H](N)CCCNC(=N)N)C(=O)NCCC(N)=O [Dendrimer 2D-04, reference compound] (H-RWRK([Arg-Trp-Arg])[βAla]-NH2)", "assayed.system": "B. Subtilis", "unit.string": "µg/mL", "IC50 B. Subtilis": 6.1}
{"compound": "CC(C)(C)c1cc(C(C)(C)C)c2[nH]c(C(C)(C)C)c(C[C@H](N)C(=O)N[C@@H](CCCNC(=N)N)C(=O)NCCCC[C@H](NC(=O)[C@H](CCCNC(=N)N)NC(=O)[C@@H](N)Cc3c(C(C)(C)C)[nH]c4c(C(C)(C)C)cc(C(C)(C)C)cc34)C(=O)N[C@@H](CCCCNC(=O)[C@H](CCCNC(=N)N)NC(=O)[C@@H](N)Cc3c[nH]c4ccccc34)C(=O)NCCC(N)=O)c2c1 [Dendrimer 3D-23] (H-[Trp(2,5,7-tBu3)]RK([Arg-Trp(2,5,7-tBu3)])K([Arg-Trp])[βAla]-NH2)", "assayed.system": "B. Subtilis", "unit.string": "µg/mL", "IC50 B. Subtilis": 2.1}
{"compound": "N=C(N)NCCC[C@H](NC(=O)[C@H](Cc1c[nH]c2ccccc12)NC(=O)[C@@H](N)CCCNC(=N)N)C(=O)NCCCC[C@H](NC(=O)[C@H](CCCCNC(=O)[C@H](CCCNC(=N)N)NC(=O)[C@H](Cc1c[nH]c2ccccc12)NC(=O)[C@@H](N)CCCNC(=N)N)NC(=O)[C@H](CCCNC(=N)N)NC(=O)[C@H](Cc1c[nH]c2ccccc12)NC(=O)[C@@H](N)CCCNC(=N)N)C(=O)NCCC(N)=O [Dendrimer 3D-06, reference compound] (H-RWRK([Arg-Trp-Arg])K([Arg-Trp-Arg])[βAla]-NH2)", "assayed.system": "B. Subtilis", "unit.string": "µg/mL", "IC50 B. Subtilis": 1.9}
{"compound": "CC(C)(C)c1cc(C(C)(C)C)c2[nH]c(C(C)(C)C)c(CC(NC(=O)[C@@H](N)CCCNC(=N)N)C(=O)N[C@@H](CCCNC(=N)N)C(=O)NCCCC[C@H](NC(=O)[C@H](CCCNC(=N)N)NC(=O)C(Cc3c(C(C)(C)C)[nH]c4c(C(C)(C)C)cc(C(C)(C)C)cc34)NC(=O)[C@@H](N)CCCNC(=N)N)C(=O)NCCC(N)=O)c2c1 (some centres unmarked) [Dendrimer 2D-24]", "assayed.system": "B. Subtilis", "unit.string": "µg/mL", "IC50 B. Subtilis": 0.8}

====

Quick reference for Hemolysis HD50 among some compounds
Tested on: fresh sheep RBC
Assay type: cell-based
Conditions: red cells of sheep, 1 h
Square brackets hold non-standard residues; d marks the D form. Side chains are listed from the residue outwards. Peptide text beside a SMILES is read from it. * marks the point of attachment. Lys(α,ε-(ArgTrp)2) = N=C(N)NCCC[C@H](N)C(=O)N[C@@H](Cc1c[nH]c2ccccc12)C(=O)NCCCC[C@H](NC(=O)[C@H](Cc1c[nH]c2ccccc12)NC(=O)[C@@H](N)CCCNC(=N)N)C(=O)*; βAla = NCCC(=O)O

{"compound": "N=C(N)NCCC[C@H](N)C(=O)N[C@@H](Cc1c[nH]c2ccccc12)C(=O)NCCCC[C@H](NC(=O)[C@H](Cc1c[nH]c2ccccc12)NC(=O)[C@@H](N)CCCNC(=N)N)C(=O)NCCCC[C@H](NC(=O)[C@H](CCCCNC(=O)[C@H](Cc1c[nH]c2ccccc12)NC(=O)[C@@H](N)CCCNC(=N)N)NC(=O)[C@H](Cc1c[nH]c2ccccc12)NC(=O)[C@@H](N)CCCNC(=N)N)C(=O)NCCC(N)=O [(RW)4D, reference compound] (H-RWK([Trp-Arg])K(Lys(α,ε-(ArgTrp)2))[βAla]-NH2; N-terminus and C-terminus assumed)", "assayed.system": "fresh sheep RBC", "Hemolysis HD50": "1400 µg/mL"}
{"compound": "N=C(N)NCCC[C@H](N)C(=O)N[C@@H](Cc1c[nH]c2ccccc12)C(=O)NCCN(CCNC(=O)[C@H](Cc1c[nH]c2ccccc12)NC(=O)[C@@H](N)CCCNC(=N)N)CCNC(=O)[C@H](Cc1c[nH]c2ccccc12)NC(=O)[C@@H](N)CCCNC(=N)N", "assayed.system": "fresh sheep RBC", "Hemolysis HD50": "3073 µg/mL"}
{"compound": "N=C(N)NCCC[C@H](N)C(=O)N[C@@H](Cc1c[nH]c2ccccc12)C(=O)NCCCN(CCCCN(CCCNC(=O)[C@H](Cc1c[nH]c2ccccc12)NC(=O)[C@@H](N)CCCNC(=N)N)CCCNC(=O)[C@H](Cc1c[nH]c2ccccc12)NC(=O)[C@@H](N)CCCNC(=N)N)CCCNC(=O)[C@H](Cc1c[nH]c2ccccc12)NC(=O)[C@@H](N)CCCNC(=N)N", "assayed.system": "fresh sheep RBC", "Hemolysis HD50": "291 µg/mL"}
